This collection of values is drawn from patent US20260356856A1.

IC50 listing for selected molecules.
Target: KRas WT (Homo sapiens, UniProt P01116)
Construct: Biotinylated KRas (corresponding to amino acids 1-169, produced at Accelegan Inc.); biotin (biotinylated); purchased Accelegan Inc
Sequence (P01116 1-169 isoform P01116-2): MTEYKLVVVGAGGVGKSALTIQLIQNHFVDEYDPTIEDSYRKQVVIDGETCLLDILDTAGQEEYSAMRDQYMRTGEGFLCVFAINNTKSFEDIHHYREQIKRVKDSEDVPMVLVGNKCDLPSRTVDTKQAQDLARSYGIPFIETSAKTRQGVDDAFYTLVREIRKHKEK
Assay: KRas binding assay, TR-FRET displacement of Cy5 labelled tracer
Settings: 60-minute incubation at room temperature, 1% DMSO, pH 7.5

{"columns": ["Molecule", "Bound Type", "IC50 (nM)"],
 "data": [
  ["N#Cc1c(N)sc2c(F)ccc(-c3c(Cl)cc4c(N5CCN(S(=O)(=O)n6ccnn6)CC5)nc(OC[C@@]56CCCN5C[C@H](F)C6)nc4c3F)c12 [Example 252]", "=", 39],
  ["O=C(Oc1ccc(F)cc1)[C@@H]1[C@@H]2C[C@H]1CN(c1nc(OCC34CCCN3CCC4)nc3c(F)c(-c4cccc5cccc(F)c45)ncc13)C2 [Example 7]", "=", 24200],
  ["CCc1c(F)ccc2cc(O)cc(-c3ncc4c(N5CCN(C(=O)n6ccc(C)n6)C(C)C5)nc(OC[C@@]56CCCN5C[C@H](F)C6)nc4c3F)c12 (stereo partly drawn) [Example 82]", "=", 23],
  ["O=C(Oc1cccc(F)c1F)C1CCN(c2nc(OCC34CCCN3CCC4)nc3c(F)c(-c4cccc5cccc(F)c45)ncc23)CC1 [Example 34]", ">", 100000],
  ["CCc1c(F)ccc2cc(O)cc(-c3ncc4c(N(C)C(C)CCC(=O)N(C)C(C)=O)nc(OC[C@@]56CCCN5C[C@H](F)C6)nc4c3F)c12 (stereo partly drawn) [Example 282]", "=", 184],
  ["CCc1c(F)ccc2cc(O)cc(-c3ncc4c(N5CC6CC(C(=O)n7ccc(C)n7)C6C5)nc(OC[C@@]56CCCN5C[C@H](F)C6)nc4c3F)c12 (stereo partly drawn) [Example 98]", "=", 178]
]}

---

Molecular target: KRas G12C (Homo sapiens, UniProt P01116, G12C)
Construct: Biotinylated KRas (corresponding to amino acids 1-169, produced at Accelegan Inc.); biotin (biotinylated); purchased Accelegan Inc
Sequence (P01116 1-169 isoform P01116-2 G12C): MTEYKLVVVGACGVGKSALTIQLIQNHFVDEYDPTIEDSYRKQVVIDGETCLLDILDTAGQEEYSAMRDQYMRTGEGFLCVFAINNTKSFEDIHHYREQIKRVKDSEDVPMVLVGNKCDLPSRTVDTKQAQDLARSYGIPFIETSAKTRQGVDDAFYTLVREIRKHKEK
Assay: KRas binding assay, TR-FRET displacement of Cy5 labelled tracer
Conditions: 60-minute incubation at room temperature, 1% DMSO, pH 7.5
List of IC50 values.

{"columns": ["Compound", "Target Or System", "IC50 (nM)"],
 "data": [
  ["CCc1c(F)ccc2cc(O)cc(N3CCc4c(nc(OC[C@@]56CCCN5C[C@H](F)C6)nc4N4CCCCC(C(=O)n5ccc(C)n5)C4)C3)c12 (stereo partly drawn) [Example 147]", "KRas G12C (Homo sapiens, UniProt P01116, G12C)", 16],
  ["CCc1c(F)ccc2cc(O)cc(-c3ncc4c(N5CCC(C(=O)n6ccc(OC)n6)CC5)nc(OC[C@@]56CCCN5C[C@H](F)C6)nc4c3F)c12 [Example 61]", "KRas G12C (Homo sapiens, UniProt P01116, G12C)", 336],
  ["CCc1c(F)ccc2cc(O)cc(-c3ncc4c(N5CC[C@@H]6[C@H](C5)[C@@H]6C(=O)n5ccc(C)n5)nc(OC[C@@]56CCCN5C[C@H](F)C6)nc4c3F)c12 [Example 157]", "KRas G12C (Homo sapiens, UniProt P01116, G12C)", 84],
  ["CCc1c(F)ccc2cc(O)cc(-c3ncc4c(N5CC(C(=O)n6ccc(C)n6)C6(CC6)C5)nc(OC[C@@]56CCCN5C[C@H](F)C6)nc4c3F)c12 (stereo partly drawn) [Example 119]", "KRas G12C (Homo sapiens, UniProt P01116, G12C)", 171],
  ["O=CC1CCN(c2nc(OCC34CCCN3CCC4)nc3c(F)c(-c4cccc5cccc(F)c45)ncc23)CC1 [Example 38]", "KRas G12C (Homo sapiens, UniProt P01116, G12C)", 761],
  ["CCc1c(F)ccc2cc(O)cc(-c3ncc4c(N5CCC(C(=O)n6ccc(C(C)C)n6)CC5)nc(OC[C@@]56CCCN5C[C@H](F)C6)nc4c3F)c12 [Example 76]", "KRas G12C (Homo sapiens, UniProt P01116, G12C)", 124]
]}

---

Biological target: KRas G12S (Homo sapiens, UniProt P01116, G12S)
Construct: Biotinylated KRas (corresponding to amino acids 1-169, produced at Accelegan Inc.); biotin (biotinylated); purchased Accelegan Inc
Sequence (P01116 1-169 isoform P01116-2 G12S): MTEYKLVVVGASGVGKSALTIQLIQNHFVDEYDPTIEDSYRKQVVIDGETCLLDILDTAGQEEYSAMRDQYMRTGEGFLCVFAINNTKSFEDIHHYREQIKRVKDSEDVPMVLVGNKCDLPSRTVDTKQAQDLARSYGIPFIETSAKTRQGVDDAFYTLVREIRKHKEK
Assay: KRas binding assay, TR-FRET displacement of Cy5 labelled tracer
Details: 60-minute incubation at room temperature, 1% DMSO, pH 7.5
Method: This Example illustrates that exemplary compounds of the present invention bind to KRas and are capable of displacing a labeled tracer ligand occupying the KRas binding site. […] The ability of a compound to bind to KRas was measured using a TR-FRET displacement assay. […] After a 60-minute incubation at room temperature, the reaction was measured using a BMG LABTECH CLARIO star Plus via TR-FRET. […]
Form field: IC50 (one value per entry).

{"columns": ["Molecule", "Target Or System", "Bound Type", "IC50, nM"],
 "data": [
  ["CC(C)(C)c1ccn(C(=O)C2CCCN(c3nc(OC[C@@]45CCCN4C[C@H](F)C5)nc4c(F)c(-c5ccc(F)c6sc(N)c(C#N)c56)c(Cl)cc34)CC2)n1 (stereo partly drawn)", "KRas G12S (Homo sapiens, UniProt P01116, G12S)", "=", 153],
  ["CCc1c(F)ccc2cc(O)cc(-c3ncc4c(N5CCC(C)(C(=O)n6ccc(C)n6)C5)nc(OC[C@@]56CCCN5C[C@H](F)C6)nc4c3F)c12 (stereo partly drawn)", "KRas G12S (Homo sapiens, UniProt P01116, G12S)", "=", 232],
  ["CCc1c(F)ccc2cc(O)cc(N3CCc4c(nc(OC[C@@]56CCCN5C[C@H](F)C6)nc4N(C)CCC(=O)n4ccc(C)n4)C3)c12", "KRas G12S (Homo sapiens, UniProt P01116, G12S)", "=", 45],
  ["CCN(C(C)=O)C(=O)CCCN(C)c1nc(OC[C@@]23CCCN2C[C@H](F)C3)nc2c(F)c(-c3ccc(F)c4sc(N)c(C#N)c34)c(Cl)cc12", "KRas G12S (Homo sapiens, UniProt P01116, G12S)", "=", 7],
  ["CCc1c(F)ccc2cc(O)cc(-c3ncc4c(N5CCC(C(=O)Nc6ccccn6)CC5)nc(OC[C@@]56CCCN5C[C@H](F)C6)nc4c3F)c12", "KRas G12S (Homo sapiens, UniProt P01116, G12S)", "=", 642],
  ["CCc1c(F)ccc2cc(O)cc(-c3ncc4c(NCCCC(=O)n5ccc(C)n5)nc(OC[C@@]56CCCN5C[C@H](F)C6)nc4c3F)c12", "KRas G12S (Homo sapiens, UniProt P01116, G12S)", "=", 3],
  ["N#Cc1c(N)sc2c(F)ccc(-c3c(Cl)cc4c(N5CCN(S(=O)(=O)n6nccn6)CC5)nc(OC[C@@]56CCCN5C[C@H](F)C6)nc4c3F)c12", "KRas G12S (Homo sapiens, UniProt P01116, G12S)", "=", 631],
  ["CCc1c(F)ccc2cc(O)cc(N3CCc4c(nc(OC[C@@]56CCCN5C[C@H](F)C6)nc4N4CCCC(C(=O)n5ccc(C)n5)CCC4)C3)c12", "KRas G12S (Homo sapiens, UniProt P01116, G12S)", "=", 1470],
  ["N#Cc1c(N)sc2c(F)ccc(-c3c(Cl)cc4c(N5CCC(C(=O)Oc6ccc(F)cc6)CC5)nc(OC[C@@]56CCCN5C[C@H](F)C6)nc4c3F)c12", "KRas G12S (Homo sapiens, UniProt P01116, G12S)", "=", 22],
  ["O=C(Oc1ccc(F)c(F)c1)[C@H]1CCN(c2nc(OCC34CCCN3CCC4)nc3c(F)c(-c4cccc5cccc(F)c45)ncc23)C[C@H]1O", "KRas G12S (Homo sapiens, UniProt P01116, G12S)", ">", 100000],
  ["CCc1c(F)ccc2cc(O)cc(-c3ncc4c(N5CCCC(C(=O)n6ccc(C)n6)CC5)nc(OC[C@@]56CCCN5C[C@H](F)C6)nc4c3F)c12 (stereo partly drawn)", "KRas G12S (Homo sapiens, UniProt P01116, G12S)", "=", 20],
  ["CN(CCCC(=O)Oc1ccccc1F)c1nc(OC[C@@]23CCCN2C[C@H](F)C3)nc2c(F)c(-c3ccc(F)c4sc(N)c(C#N)c34)c(Cl)cc12", "KRas G12S (Homo sapiens, UniProt P01116, G12S)", "=", 16]
]}

---

Biological target: KRas G12S (Homo sapiens, UniProt P01116, G12S)
Construct: Biotinylated KRas (corresponding to amino acids 1-169, produced at Accelegan Inc.); biotin (biotinylated); purchased Accelegan Inc
Test: KRas binding assay, TR-FRET displacement of Cy5 labelled tracer
Conditions: 60-minute incubation at room temperature, 1% DMSO, pH 7.5
Method: This Example illustrates that exemplary compounds of the present invention bind to KRas and are capable of displacing a labeled tracer ligand occupying the KRas binding site. […] The ability of a compound to bind to KRas was measured using a TR-FRET displacement assay. […] After a 60-minute incubation at room temperature, the reaction was measured using a BMG LABTECH CLARIO star Plus via TR-FRET. […]
Property Name: log10(IC50) (log10 of the value in nM)

{"columns": ["Compound", "Property Name", "Measured Number"],
 "data": [
  ["CCc1c(F)ccc2cc(O)cc(-c3ncc4c(N(C)CCNC(=O)n5nccn5)nc(OC[C@@]56CCCN5C[C@H](F)C6)nc4c3F)c12", "log10(IC50)", 1.81],
  ["O=C(OCC(F)(F)F)[C@@H]1[C@@H]2CC[C@H]1CN(c1nc(OCC34CCCN3CCC4)nc3c(F)c(-c4cccc5cccc(F)c45)ncc13)C2", "log10(IC50)", 4.48],
  ["CCc1c(F)ccc2cc(O)cc(-c3ncc4c(N5CCC6CC6(C(=O)n6ccc(C)n6)CC5)nc(OC[C@@]56CCCN5C[C@H](F)C6)nc4c3F)c12 (stereo partly drawn)", "log10(IC50)", 1.79],
  ["N#Cc1c(N)sc2c(F)ccc(-c3c(Cl)cc4c(N5CCC(C(=O)Oc6cccc(F)c6)CC5)nc(OC[C@@]56CCCN5C[C@H](F)C6)nc4c3F)c12", "log10(IC50)", 1.40],
  ["CCc1c(F)ccc2cc(O)cc(-c3ncc4c(N(C)CCCS(=O)(=O)n5ccnc5)nc(OC[C@@]56CCCN5C[C@H](F)C6)nc4c3F)c12", "log10(IC50)", 2.11],
  ["CN(C(=O)C1CCN(c2nc(OC[C@@]34CCCN3C[C@H](F)C4)nc3c(F)c(-c4ccc(F)c5sc(N)c(C#N)c45)c(Cl)cc23)CC1)c1cccnc1", "log10(IC50)", 1.26]
]}
